Data origin, for the record: paper PMC4468608

test protocol: PK parameters in preclinical species
Type: in vivo
condition info: in vivo, iv; Monkey; 0.1 mg/kg i.v.; dose-normalized to 1 mg/kg; read-out: AUCinf i.v.
endpoint name: AUC(0-inf) (µM·h)

[
  {
    "compound": "COc1cc2c(cc1OC(C)C)[C@H](c1ccc(Cl)cc1)N(c1ccc(N(C)C[C@H]3CC[C@H](N4CCN(C)C(=O)C4)CC3)cc1)C(=O)C2 [NVP-CGM097]",
    "readout value": 6.59
  },
  {
    "compound": "COc1cc2c(cc1OC(C)C)[C@H](c1ccc(Cl)cc1)N(c1ccc(N(C)C[C@H]3CC[C@H](N4CCNC(=O)C4)CC3)cc1)C(=O)C2 [NVP-CFC218]",
    "readout value": 2.37
  }
]

* * *

Tested on: cell lines from the Cancer Cell Line Encyclopedia (CCLE)
test protocol: High-throughput cell viability assay, CCLE cell line panel (n = 356)
Type: cell-based, human
condition info: Homo sapiens, SK-N-AS, TP53 WT

[
  {
    "chemical string": "COc1cc2c(cc1OC(C)C)[C@H](c1ccc(Cl)cc1)N(c1ccc(N(C)C[C@H]3CC[C@H](N4CCNC(=O)C4)CC3)cc1)C(=O)C2",
    "IC50": "> 8 µM"
  }
]

* * *

Test system: cell lines from the Cancer Cell Line Encyclopedia (CCLE)
test protocol: High-throughput cell viability assay, CCLE cell line panel (n = 356)
Assay type: cell-based, human
condition info: Homo sapiens, NCI-H1435, NCI-H1435, TP53 MUT
endpoint name: IC50

[
  {
    "compound": "COc1cc2c(cc1OC(C)C)[C@H](c1ccc(Cl)cc1)N(c1ccc(N(C)C[C@H]3CC[C@H](N4CCNC(=O)C4)CC3)cc1)C(=O)C2 [NVP-CFC218]",
    "endpoint name": "IC50",
    "readout value": "> 8 µM"
  }
]

* * *

System: cell lines from the Cancer Cell Line Encyclopedia (CCLE)
test protocol: High-throughput cell viability assay, CCLE cell line panel (n = 356)
Assay type: cell-based, human
condition info: Homo sapiens, MIA PaCa-2, MIA PaCa-2, TP53 MUT

[
  {
    "chemical string": "COc1cc2c(cc1OC(C)C)[C@H](c1ccc(Cl)cc1)N(c1ccc(N(C)C[C@H]3CC[C@H](N4CCNC(=O)C4)CC3)cc1)C(=O)C2",
    "tgt": "cell lines from the Cancer Cell Line Encyclopedia (CCLE)",
    "IC50": "> 8 µM"
  }
]

* * *

Tested on: cell lines from the Cancer Cell Line Encyclopedia (CCLE)
test protocol: High-throughput cell viability assay, CCLE cell line panel (n = 356)
Format: cell-based, human
condition info: Homo sapiens, CAPAN-1, Capan-1, TP53 MUT
pIC50: −log10 of the molar value.

[
  {
    "compound": "COc1cc2c(cc1OC(C)C)[C@H](c1ccc(Cl)cc1)N(c1ccc(N(C)C[C@H]3CC[C@H](N4CCNC(=O)C4)CC3)cc1)C(=O)C2 [NVP-CFC218]",
    "pIC50": "< 5.10"
  }
]

* * *

Test system: cell lines from the Cancer Cell Line Encyclopedia (CCLE)
test protocol: High-throughput cell viability assay, CCLE cell line panel (n = 356)
Type: cell-based, human
condition info: Homo sapiens, A-375, A-375, TP53 WT
endpoint name: IC50 (nM)

[
  {
    "chemical string": "COc1cc2c(cc1OC(C)C)[C@H](c1ccc(Cl)cc1)N(c1ccc(N(C)C[C@H]3CC[C@H](N4CCNC(=O)C4)CC3)cc1)C(=O)C2",
    "endpoint name": "IC50",
    "readout value": 2650
  }
]

* * *

Tested on: cell lines from the Cancer Cell Line Encyclopedia (CCLE)
test protocol: High-throughput cell viability assay, CCLE cell line panel (n = 356)
Format: cell-based, human
condition info: Homo sapiens, AU565, AU565, TP53 MUT
pIC50: −log10 of the molar value.

[
  {
    "chemical string": "COc1cc2c(cc1OC(C)C)[C@H](c1ccc(Cl)cc1)N(c1ccc(N(C)C[C@H]3CC[C@H](N4CCNC(=O)C4)CC3)cc1)C(=O)C2",
    "pIC50": "< 5.10"
  }
]

* * *

Test system: cell lines from the Cancer Cell Line Encyclopedia (CCLE)
test protocol: High-throughput cell viability assay, CCLE cell line panel (n = 356)
Assay type: cell-based, human
condition info: Homo sapiens, OVCAR-8, read-out: NVP- CFC218 IC50 (µM), cell line OVCAR-8, ovary, TP53 MUT

[
  {
    "chemical string": "COc1cc2c(cc1OC(C)C)[C@H](c1ccc(Cl)cc1)N(c1ccc(N(C)C[C@H]3CC[C@H](N4CCNC(=O)C4)CC3)cc1)C(=O)C2",
    "IC50": "> 8 µM"
  }
]

* * *

Tested on: cell lines from the Cancer Cell Line Encyclopedia (CCLE)
test protocol: High-throughput cell viability assay, CCLE cell line panel (n = 356)
Type: cell-based, human
condition info: Homo sapiens, AMO1, AMO-1, TP53 WT
pIC50: −log10 of the molar value.

[
  {
    "chemical string": "COc1cc2c(cc1OC(C)C)[C@H](c1ccc(Cl)cc1)N(c1ccc(N(C)C[C@H]3CC[C@H](N4CCNC(=O)C4)CC3)cc1)C(=O)C2",
    "pIC50": 5.70
  }
]

* * *

Tested on: cell lines from the Cancer Cell Line Encyclopedia (CCLE)
test protocol: High-throughput cell viability assay, CCLE cell line panel (n = 356)
Assay type: cell-based, human
condition info: Homo sapiens, KU-19-19, KU-19-19, TP53 WT
pIC50: −log10 of the molar value.

[
  {
    "chemical string": "COc1cc2c(cc1OC(C)C)[C@H](c1ccc(Cl)cc1)N(c1ccc(N(C)C[C@H]3CC[C@H](N4CCNC(=O)C4)CC3)cc1)C(=O)C2",
    "pIC50": 5.16
  }
]

* * *

Test system: cell lines from the Cancer Cell Line Encyclopedia (CCLE)
test protocol: High-throughput cell viability assay, CCLE cell line panel (n = 356)
Format: cell-based, human
condition info: Homo sapiens, Hs 936.T, TP53 WT
pIC50: −log10 of the molar value.

[
  {
    "chemical string": "COc1cc2c(cc1OC(C)C)[C@H](c1ccc(Cl)cc1)N(c1ccc(N(C)C[C@H]3CC[C@H](N4CCNC(=O)C4)CC3)cc1)C(=O)C2",
    "pIC50": 5.19
  }
]

* * *

Test system: cell lines from the Cancer Cell Line Encyclopedia (CCLE)
test protocol: High-throughput cell viability assay, CCLE cell line panel (n = 356)
Type: cell-based, human
condition info: Homo sapiens, NCI-H1581, NCI-H1581, TP53 MUT
pIC50: −log10 of the molar value.

[
  {
    "chemical string": "COc1cc2c(cc1OC(C)C)[C@H](c1ccc(Cl)cc1)N(c1ccc(N(C)C[C@H]3CC[C@H](N4CCNC(=O)C4)CC3)cc1)C(=O)C2",
    "pIC50": "< 5.10"
  }
]

* * *

Test system: cell lines from the Cancer Cell Line Encyclopedia (CCLE)
test protocol: High-throughput cell viability assay, CCLE cell line panel (n = 356)
Format: cell-based, human
condition info: Homo sapiens, MDA-MB-468, MDA-MB-468, TP53 MUT
pIC50: −log10 of the molar value.
endpoint name: pIC50

[
  {
    "chemical string": "COc1cc2c(cc1OC(C)C)[C@H](c1ccc(Cl)cc1)N(c1ccc(N(C)C[C@H]3CC[C@H](N4CCNC(=O)C4)CC3)cc1)C(=O)C2",
    "readout value": "< 5.10"
  }
]

* * *

System: cell lines from the Cancer Cell Line Encyclopedia (CCLE)
test protocol: High-throughput cell viability assay, CCLE cell line panel (n = 356)
Assay type: cell-based, human
condition info: Homo sapiens, BT-474, BT-474, TP53 MUT
pIC50: −log10 of the molar value.

[
  {
    "chemical string": "COc1cc2c(cc1OC(C)C)[C@H](c1ccc(Cl)cc1)N(c1ccc(N(C)C[C@H]3CC[C@H](N4CCNC(=O)C4)CC3)cc1)C(=O)C2",
    "pIC50": "< 5.10"
  }
]

* * *

System: cell lines from the Cancer Cell Line Encyclopedia (CCLE)
test protocol: High-throughput cell viability assay, CCLE cell line panel (n = 356)
Assay type: cell-based, human
condition info: Homo sapiens, NCI-H1299, read-out: NVP- CFC218 IC50 (µM), cell line NCI-H1299, lung, TP53 WT
endpoint name: IC50

[
  {
    "compound": "COc1cc2c(cc1OC(C)C)[C@H](c1ccc(Cl)cc1)N(c1ccc(N(C)C[C@H]3CC[C@H](N4CCNC(=O)C4)CC3)cc1)C(=O)C2 [NVP-CFC218]",
    "tgt": "cell lines from the Cancer Cell Line Encyclopedia (CCLE)",
    "readout value": "> 8 µM"
  }
]

* * *

Test system: cell lines from the Cancer Cell Line Encyclopedia (CCLE)
test protocol: High-throughput cell viability assay, CCLE cell line panel (n = 356)
Format: cell-based, human
condition info: Homo sapiens, HSC-2, read-out: NVP- CFC218 IC50 (µM), cell line HSC-2, upper_aerodigestive_tract, TP53 MUT
endpoint name: IC50

[
  {
    "compound": "COc1cc2c(cc1OC(C)C)[C@H](c1ccc(Cl)cc1)N(c1ccc(N(C)C[C@H]3CC[C@H](N4CCNC(=O)C4)CC3)cc1)C(=O)C2 [NVP-CFC218]",
    "endpoint name": "IC50",
    "readout value": "> 8 µM"
  }
]
